Entries annotated with measured ΔTm at 10 µM
- subject_of_test: LmxCLK1 (Leishmania mexicana)
- Sequence (E9AMP2 1-422): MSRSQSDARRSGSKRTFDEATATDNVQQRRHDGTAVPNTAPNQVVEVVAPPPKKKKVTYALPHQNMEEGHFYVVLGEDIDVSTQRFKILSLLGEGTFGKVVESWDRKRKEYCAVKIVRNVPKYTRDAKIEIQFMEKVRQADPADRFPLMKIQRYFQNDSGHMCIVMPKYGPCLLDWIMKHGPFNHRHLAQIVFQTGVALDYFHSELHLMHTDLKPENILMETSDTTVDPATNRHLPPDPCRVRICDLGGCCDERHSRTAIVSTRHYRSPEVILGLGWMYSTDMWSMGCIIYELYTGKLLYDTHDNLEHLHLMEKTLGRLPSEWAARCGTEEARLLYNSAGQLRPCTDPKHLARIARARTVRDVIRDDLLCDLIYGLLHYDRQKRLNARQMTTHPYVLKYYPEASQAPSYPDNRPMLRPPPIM
- assay_explanation: biochemical
- Assay type: binding
- setup_conditions: DSF, 10 µM compound, 2 µM LmxCLK1, Run 1; read-out: ΔTm Run 1
Give the value in °C but do not write °C after it.

sample_smiles: Cc1cc([C@@H](C)Nc2ccccc2C(=O)O)c2nc(N3CCOCC3)cc(=O)n2c1
u: °C
ΔTm at 10 µM: 0.1

Fill in: LmxCLK1 (Leishmania mexicana) ΔTm at 10 µM for `CNC(=O)c1ccc(C)c(-n2c(C)cc(OCc3ccc(F)cc3F)c(Br)c2=O)c1` = -0.1

Item `Cc1cc(Nc2cc(CN3CCOCC3)c3nc(C)c(Cc4ccc(Cl)cc4F)n3n2)n[nH]1` was tested on LmxCLK1 (Leishmania mexicana); the reported ΔTm at 10 µM is -0.3

Fill in: LmxCLK1 (Leishmania mexicana) ΔTm at 10 µM for `Nc1ncnc2c1c(-c1cccc(OCc3ccccc3)c1)cn2[C@H]1C[C@@H](CN2CCC2)C1` = 0.1

`O=C(O)c1ccc(-c2c[nH]c3ncc(-c4ccccc4)cc23)cc1C1CCCC1` on LmxCLK1 (Leishmania mexicana) gives ΔTm at 10 µM = -0.4

Note to self: ΔTm at 10 µM of `NC(=O)c1ccc(N(C(N)=O)c2c(F)cccc2F)nc1-c1ccc(F)cc1F` with LmxCLK1 (Leishmania mexicana) was 0.3

Summary line: `Cc1[nH]c(/C=C2\C(=O)Nc3ccc(S(=O)(=O)N(C)c4cccc(Cl)c4)cc32)c(C)c1C(=O)N1CCN(C)CC1` , LmxCLK1 (Leishmania mexicana), reported ΔTm at 10 µM = -0.1

Bench note, LmxCLK1 (Leishmania mexicana): entry `COC(=O)[C@]12CCC(C)(C)C[C@H]1[C@H]1C(=O)C=C3[C@@]4(C)C=C(C#N)C(=O)C(C)(C)[C@@H]4CC[C@@]3(C)[C@]1(C)CC2` , its ΔTm at 10 µM = 0.6

Query `Cc1nc(NC(=O)N2CCC[C@H]2C(N)=O)sc1-c1ccnc(C(C)(C)C(F)(F)F)c1` on LmxCLK1 (Leishmania mexicana); ΔTm at 10 µM returned: 0.1

Test item `O=C(Nc1c[nH]nc1-c1nc2ccc(CN3CCOCC3)cc2[nH]1)NC1CC1` ; LmxCLK1 (Leishmania mexicana); reported ΔTm at 10 µM was 2.2
